system: OVCAR-8; experiment: NCI tumour cell line growth inhibition, 48 h
Active and inactive are the calls of the source. Rule as the data show it: active = GI50 up to about 1.1 µM and inactive = higher.
Outcomes: active, inactive

Molecule | Test target | Discrete label
CCc1cccc(C)c1NC(=S)NC(=O)c1ccccc1C(=O)NC(=S)Nc1c(C)cccc1CC | OVCAR-8 | inactive
CCn1c2ccccc2c2ccc3c(c21)C(=O)c1ccccc1C3=O | OVCAR-8 | inactive
CCOC(=O)/C(C#N)=C/c1ccc(CO)o1 | OVCAR-8 | inactive
C=CCOC(=O)Cn1cnc2c(N)ncnc21 | OVCAR-8 | inactive
C=C1CC(Cn2ccc(=O)[nH]c2=O)(c2ccc(-c3ccccc3)cc2)OC1=O (configuration not stated) | OVCAR-8 | inactive
Cc1cc(Br)cc(C)c1NC(=O)C(=O)CC(=O)c1sc(-n2nc(-c3ccccc3)cc2-c2ccccc2)nc1C | OVCAR-8 | inactive
CC(=O)c1ccccc1NCC(=O)Nn1cnc2ccc(S(=O)(=O)Nc3ccccc3C(C)=O)cc2c1=O | OVCAR-8 | inactive
Nc1nnc2oc3ccc4ccccc4c3cc1-2 | OVCAR-8 | inactive
Cc1ccc(C2SCC(=O)N2c2ccc(-n3c(-c4ccccc4)nc4ccccc4c3=O)cc2)cc1 (configuration not stated) | OVCAR-8 | inactive
COC(=O)c1ccccc1C1CN=NC12Cc1cc3c(cc1C2=O)CCC3 (configuration not stated) | OVCAR-8 | inactive
NCc1ccccc1-c1c2nc(c(-c3ccccc3CN)c3ccc([nH]3)c(-c3ccccc3CN)c3nc(c(-c4ccccc4CN)c4ccc1[nH]4)C=C3)C=C2 | OVCAR-8 | inactive
O=[N+]([O-])c1nccn1CCCNc1c2ccccc2[n+]([O-])c2ccccc12 | OVCAR-8 | inactive
CC(C)=CCC/C(C)=C/CC/C(C)=C/CC/C(C=O)=C/CC/C(C)=C\CC/C(C)=C/CC/C(C)=C/CC/C(C)=C/CC1=CC(=O)C=CC1=O | OVCAR-8 | inactive
CC1=C2C(=O)OCC23C=COC3(C)O1 (configuration not stated) | OVCAR-8 | inactive
CCc1nc(N)c2nc(-c3cccs3)oc2n1 | OVCAR-8 | inactive
C[C@H](CCC(=O)NCC(=O)O)[C@H]1CC[C@H]2[C@@H]3[C@H](O)C[C@@H]4C[C@H](O)CC[C@]4(C)[C@H]3CC[C@]12C | OVCAR-8 | inactive
CC1(C)C(=O)CCC(=O)C(C)(C)C2=CC=C(O2)C(C)(C)C(=O)CCC(=O)C(C)(C)C2=CC=C1O2 | OVCAR-8 | inactive
C=CCC1=CC2(OC)C(=O)C(OC)(OC)C1C1C(OC)(OC)C(=O)C(OC)=CC12CC=C (configuration not stated) | OVCAR-8 | inactive
O=C(O)CN1CCN2CCCCCN(CC1)CCN(CC(=O)O)CC2 | OVCAR-8 | inactive
CC1CCC2CC1NC(=O)CCOCCC(=O)NC2(C)C (configuration not stated) | OVCAR-8 | inactive
COc1ccc(/C=N\NC(=O)Nc2cccc3ccccc23)cc1 | OVCAR-8 | inactive
Clc1cccc(C2SCc3nc4ccccc4n32)c1Cl (configuration not stated) | OVCAR-8 | inactive
Cn1c(=O)c2c(nc3n2CC(C(=O)O)N3)n(C)c1=O (configuration not stated) | OVCAR-8 | inactive
O=C(O)C[C@H]1CCCCC12CCOC2=O (some centres not stated) | OVCAR-8 | inactive
CCOC(=O)c1ccc(Nc2nc3ccc(C(F)(F)F)cc3nc2C(=O)OCC)cc1 | OVCAR-8 | inactive
N=C(CCl)NC1CN2CCC1CC2 (configuration not stated) | OVCAR-8 | inactive
CCOC(=O)/C(C#N)=C(O)/C(=C/c1ccccc1Cl)NC(=O)c1ccccc1 | OVCAR-8 | inactive
CC(=O)Nc1ccc(-c2nc3ccccc3s2)cc1Br | OVCAR-8 | inactive
O=C1CC(c2c(-c3ccccc3)[nH]c3ccccc23)C(=O)N1c1ccccc1 (configuration not stated) | OVCAR-8 | inactive
CCCCCCC(C)CCCCCCCCCCC(=O)O (configuration not stated) | OVCAR-8 | inactive
COc1ccc(C(=O)C(C(=O)CCC(=O)Nc2cccc(Cl)c2)c2ccc(OC)cc2)cc1 (configuration not stated) | OVCAR-8 | inactive
CCCCCCCCCCCCCCCCCCN(C)CC(COP(=O)([O-])OCC[N+](C)(C)C)OC (configuration not stated) | OVCAR-8 | inactive
Cc1ccccc1NC(=O)CC1C(=O)Nc2ccccc2[S+]1[O-] (configuration not stated) | OVCAR-8 | inactive
c1ccc(SCCP(CCP(c2ccccc2)c2ccccc2)c2ccccc2)cc1 (configuration not stated) | OVCAR-8 | inactive
COc1cc(/C=C/c2cccnc2)cc(OC)c1OC | OVCAR-8 | inactive
COC1C(O)=C2C(=O)OC(C)(O)/C=C/C=C\C=C/C=C/C(c3ccccc3)NC(=O)/C=C/C=C/C=C/C=C/C2(C)C1O (configuration not stated) | OVCAR-8 | active
Cc1cn(C2C=CC(=O)C(C)O2)c(=O)[nH]c1=O (configuration not stated) | OVCAR-8 | inactive
CC(C)[Si](OCC1CC(C#N)OC(C)(C)O1)(C(C)C)C(C)C (configuration not stated) | OVCAR-8 | inactive
Cc1ccc(/N=N/N(C)C(C)C(O)Cc2ccccc2)cc1 (configuration not stated) | OVCAR-8 | inactive
COC(=O)C1=C(C)N(NC(=O)c2ccccc2)C(C)(O)C12CCOC2=O (configuration not stated) | OVCAR-8 | inactive
N/C(=N\O)N/N=C/c1cccc(F)c1 | OVCAR-8 | inactive
CC1(C)CN=C(Nc2ccc(F)c(Cl)c2)S1 | OVCAR-8 | inactive
